System: Vero E6
Assay: drug sensitivity score (DSS) for viability; higher = more toxic; extreme values may be limits of the assay
Details: 72 h
Measured Metric: drug sensitivity score
The answer should be written as a number, with no unit following it.

[
  {
    "Compound": "O=C1c2cccc(O)c2C(=O)c2c(O)cccc21 [dantron]",
    "Experimental Result": 0.2
  }
]

Endpoint output: drug sensitivity score of CC(C)c1cc(C(=O)N2Cc3ccc(CN4CCN(C)CC4)cc3C2)c(O)cc1O . Value? 11

Do the same for CN(C(=O)c1c(O)c2ccccc2n(C)c1=O)c1ccccc1 [roquinimex] please 0

Do the same for Cc1noc2c1-c1ccccc1C(c1ccc(Cl)cc1)=N[C@H]2CC(N)=O [CPI-0610] please 13

Do the same for CCNCCCNCCCCNCCCNCC [1,12-Besm] please 1.7

Do the same for Oc1ccc2c(c1)CC[C@H](c1ccccc1)[C@@H]2c1ccc(OCCN2CCCC2)cc1 [lasofoxifene] please 1.8

Do the same for CN(C)CCOc1ccc(-c2nc(-c3ccncc3)c(-c3ccc4c(c3)CC/C4=N\O)[nH]2)cc1 please 0

Do the same for CC(C)(C)[C@]1(O)CCN2C[C@H]3c4ccccc4CCc4cccc(c43)[C@@H]2C1 [butaclamol] please 0

Do the same for CCC(C)(C)C(=O)C(=O)N1CCC[C@H]1C(=O)OCCCc1cccnc1 [GPI-1046] please 0

###

cell viability values for the compounds below.
Tested on: U2OS
Test: cell viability relative to DMSO; higher = less toxic
Settings: 72 h; 1 nM
# value in %; strip the unit string

Sample answers from the record:
[
  {
    "Compound": "CS(=O)(=O)c1ccc(C2=C(c3ccccc3)C(=O)OC2)cc1 [rofecoxib]",
    "Experimental Result": 101
  },
  {
    "Compound": "c1ccc2nc(C3=NCCN3)ccc2c1 [BU-224]",
    "Experimental Result": 99.8
  },
  {
    "Compound": "CN1CC[C@H](c2c(O)cc(O)c3c(=O)cc(-c4ccccc4Cl)oc23)[C@H](O)C1 [alvocidib]",
    "Experimental Result": 98.7
  },
  {
    "Compound": "CCCCCCCCCCCCCCOc1ccc(C(=O)O)o1 [KD-023]",
    "Experimental Result": 97.4
  },
  {
    "Compound": "O=C(O)C1=CCCNC1 [guvacine]",
    "Experimental Result": 105
  },
  {
    "Compound": "CCNCCCNCCCCNCCCNCC [1,12-Besm]",
    "Experimental Result": 102
  }
]

Endpoint output: cell viability of CCn1c(=O)n([C@H]2CCCN(c3nccc(-c4cc5ccccc5o4)n3)C2)c2ccccc21 [TC-F-2] . Value? 95.1

Do the same for CNC(=O)c1ccc(Nc2ncc(C(F)(F)F)c(NCc3nccnc3N(C)S(C)(=O)=O)n2)cc1 [defactinib] please 98.2

Do the same for CC(C)(C)NCc1cc(Nc2ccnc3cc(Cl)ccc23)c2c(c1O)CCCC2 [naphthoquine-phosphate] please 96.3

Do the same for CC(=O)[C@]1(N)Cc2c(O)c3c(c(O)c2[C@@H](O[C@H]2C[C@H](O)[C@H](O)CO2)C1)C(=O)c1ccccc1C3=O [amrubicin] please 104

Do the same for O=c1cc(-c2ccccc2)oc2cc(O)cc(O)c12 [chrysin] please 98.4

Do the same for CC(N)CCCC(C)(C)O (configuration not stated) [heptaminol] please 95.1

###

cell viability values for the molecules below.
System: U2OS
Assay: cell viability relative to DMSO; higher = less toxic
Conditions: 72 h; 10 nM
Respond with the figure and its unit, in that order.

Sample answers from the record:
[
  {
    "Molecule": "CCC(=O)OCC(=O)[C@@]1(OC(=O)CC)[C@@H](C)C[C@H]2[C@@H]3CCC4=CC(=O)C=C[C@]4(C)[C@@]3(Cl)[C@@H](O)C[C@@]21C [beclomethasone-dipropionate]",
    "cell viability": "102%"
  },
  {
    "Molecule": "Cc1ccc(C(=O)Cn2c3c(sc2=N)CCCC3)cc1",
    "cell viability": "97.5%"
  },
  {
    "Molecule": "CC(C)[C@H](CO)Nc1nc(Nc2ccc(C(=O)O)c(Cl)c2)c2ncn(C(C)C)c2n1",
    "cell viability": "96.1%"
  },
  {
    "Molecule": "CCn1cc(C(=O)O)c(=O)c2cc(F)c(N3CCNC(C)C3)c(F)c21 (stereo unspecified)",
    "cell viability": "98.3%"
  }
]

Endpoint output: cell viability of CN1CCN(c2c(F)cc3c(=O)c(C(=O)O)cn(CCF)c3c2F)CC1 . Value? 93.6%

Do the same for O=C(Nc1c(-c2cccs2)nc2ccccn12)c1ccc(Cl)cc1 please 96.7%

Do the same for COc1c(C)c2c(c(O)c1C/C=C(\C)CCC(=O)O)C(=O)OC2 please 102%

Do the same for O=C(Nc1cccc2cccnc12)c1ccc(N2C(=O)[C@@H]3[C@H](C2=O)[C@H]2C=C[C@@H]3C2)cc1 [exo-IWR-1] please 104%

Do the same for CC1=C(/C=C/C(C)=C/C=C/C(C)=C/C=C/C=C(C)/C=C/C=C(C)/C=C/C2=C(C)CCCC2(C)C)C(C)(C)CCC1 please 95.1%

###

Tested on: Calu-3
Assay: cell viability relative to DMSO; higher = less toxic
Settings: 72 h; 100 nM
Measured Metric: cell viability (%)
# value in %; strip the unit string

[
  {
    "Molecule": "O=C1NC(=O)/C(=C/c2ccc3nccc(-c4ccncc4)c3c2)S1",
    "cell viability, %": 97.8
  },
  {
    "Molecule": "O=C(Nc1cccc2cccnc12)c1ccc(N2C(=O)[C@@H]3[C@H](C2=O)[C@H]2C=C[C@@H]3C2)cc1 [exo-IWR-1]",
    "cell viability, %": 107
  }
]

Endpoint output: cell viability of CCC(=O)OCC(=O)[C@@]1(OC(=O)CC)[C@@H](C)C[C@H]2[C@@H]3CCC4=CC(=O)C=C[C@]4(C)[C@@]3(Cl)[C@@H](O)C[C@@]21C [beclomethasone-dipropionate] . Value? 97

Do the same for Cc1cc2nc3c(=O)[nH]c(=O)nc-3n(C[C@H](O)[C@H](O)[C@H](O)COP(=O)(O)O)c2cc1C [riboflavin-5-phosphate-sodium] please 92.7

Do the same for O=C(O)CCC(=O)O please 98.5

Do the same for O=c1[nH]c2ccccc2n1CCCN1CCN(C(c2ccccc2)c2ccccc2)CC1 [oxatomide] please 105

Do the same for N[C@H]1C[C@@H]1c1ccccc1 (racemic) please 97.6

Do the same for CC(C)(C)c1ccc(-c2nc3c(N4CCN(Cc5ccc6nccnc6c5)CC4)cccc3[nH]2)cc1 please 111

###

System: U2OS
Experiment: cell viability relative to DMSO; higher = less toxic
Conditions: 72 h; 1000 nM
Measured Metric: cell viability (%)
# value in %; strip the unit string

[
  {
    "Molecule": "Cn1cc(C(F)(F)F)nc1-c1ccc(OCC(O)CNCCOc2ccc(O)c(C(N)=O)c2)cc1 (stereo unspecified)",
    "Measured Metric": "cell viability",
    "Unit Abbreviation": "%",
    "Experimental Result": 101
  },
  {
    "Molecule": "O=C(O)[C@H](Cc1ccccc1)NCc1ccc(Cl)cc1",
    "Measured Metric": "cell viability",
    "Unit Abbreviation": "%",
    "Experimental Result": 98.3
  },
  {
    "Molecule": "Cc1ccc(NC(=O)CCCCCC(=O)Nc2ccccc2N)cc1",
    "Measured Metric": "cell viability",
    "Unit Abbreviation": "%",
    "Experimental Result": 95.7
  },
  {
    "Molecule": "CCC1(C)CC(=O)NC1=O (stereo unspecified) [ethosuximide]",
    "Measured Metric": "cell viability",
    "Unit Abbreviation": "%",
    "Experimental Result": 99.6
  },
  {
    "Molecule": "CCn1c(=O)n([C@H]2CCCN(c3nccc(-c4cc5ccccc5o4)n3)C2)c2ccccc21",
    "Measured Metric": "cell viability",
    "Unit Abbreviation": "%",
    "Experimental Result": 98.8
  }
]

Endpoint output: cell viability of COC(=O)/C=C/c1cc(O)ccc1O . Value? 97.4

Do the same for O=C1NC(=O)/C(=C/c2ccc(-c3ccc(F)cc3O)o2)S1 please 104

Do the same for COC1=CC(=O)C[C@@H](C)[C@]12Oc1c(Cl)c(OC)cc(OC)c1C2=O please 98.8

Do the same for CC[C@H](C)[C@H](N)C1=N[C@H](C(=O)N[C@@H](CC(C)C)C(=O)N[C@H](CCC(=O)[O-])C(=O)N[C@H](C(=O)N[C@H]2CCCCNC(=O)[C@H](CC(N)=O)NC(=O)[C@@H](CC(=O)[O-])NC(=O)[C@H](Cc3cnc[nH]3)NC(=O)[C@@H](Cc3ccccc3)NC(=O)[C@H]([C@@H](C)CC)NC(=O)[C@@H](CCCN)NC2=O)[C@@H](C)CC)CS1.[Zn+2] please 103

Do the same for O=C(Nc1c(-c2cccs2)nc2ccccn12)c1ccc(Cl)cc1 please 99.3

Do the same for O=C(CCBr)N1CC[N+]2(CC1)CC[N+]1(CCN(C(=O)CCBr)CC1)CC2 please 99.4

Do the same for CN1CCN(S(=O)(=O)c2ccc(-c3cnc(N)c(C(=O)Nc4cccnc4)n3)cc2)CC1 please 100

Do the same for Cc1ccc(C(=O)Nc2ccc(Oc3cc4cnn(C)c4cc3-c3cn[nH]c3)c(F)c2)c(=O)n1-c1ccc(F)cc1 please 96.9

Do the same for N#CN1CCCC1 please 104

Do the same for C[C@H](CCC(=O)O)[C@H]1CC[C@H]2[C@@H]3[C@H](O)C[C@@H]4C[C@H](O)CC[C@]4(C)[C@H]3C[C@H](O)[C@]12C please 102

Do the same for Cc1cc2nc3c(=O)[nH]c(=O)nc-3n(C[C@H](O)[C@H](O)[C@H](O)COP(=O)(O)O)c2cc1C [riboflavin-5-phosphate-sodium] please 98.2
